# methodDescription: Serum azithromycin pharmacokinetics after 2 g oral capsule dose, single vs divided (Example 1)
# Assay type: in vivo
# cond: male, human, 2 g single oral dose as eight 250 mg capsules, fasted healthy male subjects, mean
# Method: In a double-blind, randomized, placebo-controlled parallel group study, healthy male subjects were divided into three groups. Group A received a single 2 g azithromycin dose as eight 250 mg azithromycin capsules (“bolus dosing” group). Group B received the same total dose, administered as eight 250 mg capsules at the rate of one 250 mg capsule each 30 minutes for 3.5 hr (“divided dosing” group). Group C received matching placebo capsules. […]
endpointName: Cmax

* CC[C@H]1OC(=O)[C@H](C)[C@@H](O[C@H]2C[C@@](C)(OC)[C@@H](O)[C@H](C)O2)[C@H](C)[C@@H](O[C@@H]2O[C@H](C)C[C@H](N(C)C)[C@H]2O)[C@](C)(O)C[C@@H](C)CN(C)[C@H](C)[C@@H](O)[C@]1(C)O [azithromycin] | 1690 ng/mL
